Test system: mice with bleomycin-induced pulmonary fibrosis
Test: Lung weight index in mice with pulmonary fibrosis
Type: in vivo, C57BL/6 mice
Details: Table 3 groups, 2 mg/kg i.p.; after 28 days; lung weight (mg) divided by body weight (g)
Procedure: Male C57BL/6 mice were fasted overnight, then anesthetized with 45 mg/kg sodium pentobarbital by injection intraperitoneally (i.p.), and intratracheally injected with bleomycin at a dose of 3 U/kg. […]
Bridge positions count the residues as written; N and C are the ends. Square brackets hold non-standard residues; d marks the D form. Peptide text beside a SMILES is read from it. S5 = C=CCCC[C@](C)(N)C(=O)O
propertyLabel: Lung weight index
API note: the answer field is a bare number with no unit suffix.

See these solved cases before continuing.
CSCC[C@H](NC(=O)[C@H](CC(C)C)NC(=O)[C@@H](N)Cc1c[nH]cn1)C(=O)N[C@@H](C)C(=O)N[C@@H](CS)C(=O)N[C@@H](Cc1ccccc1)C(=O)N[C@@]1(C)CCCC=CCCC[C@@](C)(C(=O)N[C@@H](CC(C)C)C(=O)N[C@@H](CCCCN)C(=O)N[C@@H](CCCCN)C(=O)N[C@@H](CCCNC(=N)N)C(=O)O)NC(=O)[C@H](CCCCN)NC(=O)[C@H](C)NC(=O)[C@H](CS)NC1=O [S7] (H-HLMACF[S5]CAK[S5]LKKR-OH; staple 7-11; N-terminus and C-terminus assumed); 7.675
CSCC[C@@H]1NC(=O)[C@@](C)(NC(=O)[C@@H](N)Cc2c[nH]cn2)CCCC=CCCC[C@@](C)(C(=O)N[C@H](C(=O)N[C@@H](CS)C(=O)N[C@@H](C)C(=O)N[C@@H](CCCCN)C(=O)N[C@@H](CCCCN)C(=O)N[C@@H](CC(C)C)C(=O)N[C@@H](CCCCN)C(=O)N[C@@H](CCCCN)C(=O)N[C@@H](CCCNC(=N)N)C(=O)O)[C@@H](C)O)NC(=O)[C@H](CS)NC(=O)[C@H](C)NC1=O [S2] (H-H[S5]MAC[S5]TCAKKLKKR-OH; staple 2-6; N-terminus and C-terminus assumed); 9.35
CSCC[C@H](NC(=O)[C@H](CC(C)C)NC(=O)[C@@H](N)Cc1c[nH]cn1)C(=O)N[C@@H](C)C(=O)N[C@@H](CS)C(=O)N[C@@H](Cc1ccccc1)C(=O)N[C@H](C(=O)N[C@@H](CS)C(=O)N[C@@]1(C)CCCC=CCCC[C@@](C)(C(=O)N[C@@H](CCCCN)C(=O)N[C@@H](CCCNC(=N)N)C(=O)O)NC(=O)[C@H](CC(C)C)NC(=O)[C@H](CCCCN)NC(=O)[C@H](CCCCN)NC1=O)[C@@H](C)O [S9] (H-HLMACFTC[S5]KKL[S5]KR-OH; staple 9-13; N-terminus and C-terminus assumed); 7.4125

# next molecule below
## Input Test system mice with bleomycin-induced pulmonary fibrosis; read-out Lung weight index; what value for CSCC[C@H](NC(=O)[C@H](CC(C)C)NC(=O)[C@@H](N)Cc1c[nH]cn1)C(=O)N[C@@H](C)C(=O)N[C@@H](CS)C(=O)N[C@@H](Cc1ccccc1)C(=O)N[C@H](C(=O)N[C@@]1(C)CCCC=CCCC[C@@](C)(C(=O)N[C@@H](CCCCN)C(=O)N[C@@H](CCCCN)C(=O)N[C@@H](CCCNC(=N)N)C(=O)O)NC(=O)[C@H](CCCCN)NC(=O)[C@H](CCCCN)NC(=O)[C@H](C)NC1=O)[C@@H](C)O [S8] (H-HLMACFT[S5]AKK[S5]KKR-OH; staple 8-12; N-terminus and C-terminus assumed) ?
## Output 8.775

----------
Test system: mice with bleomycin-induced pulmonary fibrosis
Assay: Pulmonary function (Flexivent) in mice with pulmonary fibrosis
Assay type: in vivo, C57BL/6 mice
Details: Table 3 groups, 2 mg/kg i.p.; 28th day after model construction
Procedure: Male C57BL/6 mice were fasted overnight, then anesthetized with 45 mg/kg sodium pentobarbital by injection intraperitoneally (i.p.), and intratracheally injected with bleomycin at a dose of 3 U/kg. […]
Bridge positions count the residues as written; N and C are the ends. Square brackets hold non-standard residues; d marks the D form. Peptide text beside a SMILES is read from it. S5 = C=CCCC[C@](C)(N)C(=O)O
With a cut-off of 50 cmH2O./mL, any Dynamic elasticity (cmH2O./mL) strictly below it is called 1.0; any Dynamic elasticity (cmH2O./mL) meeting it or above is called 0.0.

Solved cases below.
CSCC[C@H](NC(=O)[C@H](CC(C)C)NC(=O)[C@@H](N)Cc1c[nH]cn1)C(=O)N[C@@H](C)C(=O)N[C@@H](CS)C(=O)N[C@@H](Cc1ccccc1)C(=O)N[C@H](C(=O)N[C@@H](CS)C(=O)N[C@@H](C)C(=O)N[C@@H](CCCCN)C(=O)N[C@@H](CCCCN)C(=O)N[C@@H](CC(C)C)C(=O)N[C@@H](CCCCN)C(=O)N[C@@H](CCCCN)C(=O)N[C@@H](CCCNC(=N)N)C(=O)O)[C@@H](C)O [MR2] (H-HLMACFTCAKKLKKR-OH; N-terminus and C-terminus assumed); 0.0
CSCC[C@H](NC(=O)[C@H](CC(C)C)NC(=O)[C@@H](N)Cc1c[nH]cn1)C(=O)N[C@@H](C)C(=O)N[C@@]1(C)CCCC=CCCC[C@@](C)(C(=O)N[C@@H](CCCCN)C(=O)N[C@@H](CCCCN)C(=O)N[C@@H](CC(C)C)C(=O)N[C@@H](CCCCN)C(=O)N[C@@H](CCCCN)C(=O)N[C@@H](CCCNC(=N)N)C(=O)O)NC(=O)[C@H](CS)NC(=O)[C@H]([C@@H](C)O)NC(=O)[C@H](Cc2ccccc2)NC1=O [S5] (H-HLMA[S5]FTC[S5]KKLKKR-OH; staple 5-9; N-terminus and C-terminus assumed); 1.0
CSCC[C@H](NC(=O)[C@H](CC(C)C)NC(=O)[C@@H](N)Cc1c[nH]cn1)C(=O)N[C@@H](C)C(=O)N[C@@H](CS)C(=O)N[C@@H](Cc1ccccc1)C(=O)N[C@H](C(=O)N[C@@H](CS)C(=O)N[C@@]1(C)CCCC=CCCC[C@@](C)(C(=O)N[C@@H](CCCCN)C(=O)N[C@@H](CCCNC(=N)N)C(=O)O)NC(=O)[C@H](CC(C)C)NC(=O)[C@H](CCCCN)NC(=O)[C@H](CCCCN)NC1=O)[C@@H](C)O [S9] (H-HLMACFTC[S5]KKL[S5]KR-OH; staple 9-13; N-terminus and C-terminus assumed); 1.0

# ---- query compound ----
## Input Field: below-cutoff. Rule: recorded Dynamic elasticity (cmH2O./mL) strictly less than 50 cmH2O./mL. Subject: CSCC[C@H](NC(=O)[C@H](CC(C)C)NC(=O)[C@@H](N)Cc1c[nH]cn1)C(=O)N[C@@H](C)C(=O)N[C@@H](CS)C(=O)N[C@@]1(C)CCCC=CCCC[C@@](C)(C(=O)N[C@@H](CCCCN)C(=O)N[C@@H](CC(C)C)C(=O)N[C@@H](CCCCN)C(=O)N[C@@H](CCCCN)C(=O)N[C@@H](CCCNC(=N)N)C(=O)O)NC(=O)[C@H](C)NC(=O)[C@H](CS)NC(=O)[C@H]([C@@H](C)O)NC1=O [S6] (H-HLMAC[S5]TCA[S5]KLKKR-OH; staple 6-10; N-terminus and C-terminus assumed)
## Output 0.0

----------
Below, each entry is listed alongside its reported hydroxyproline content (μg/mg protein).
Test system: mice with bleomycin-induced pulmonary fibrosis
Assay: Hydroxyproline content in lung of mice with pulmonary fibrosis
Format: in vivo, C57BL/6 mice
Settings: Table 3 groups, 2 mg/kg i.p.; left lung lobes; chloramine-T method
Bridge positions count the residues as written; N and C are the ends. Square brackets hold non-standard residues; d marks the D form. Peptide text beside a SMILES is read from it. S5 = C=CCCC[C@](C)(N)C(=O)O
Please reply with the bare figure in μg/mg protein and do not write the unit itself.

See these solved cases before continuing.
CSCC[C@@H]1NC(=O)[C@@](C)(NC(=O)[C@@H](N)Cc2c[nH]cn2)CCCC=CCCC[C@@](C)(C(=O)N[C@H](C(=O)N[C@@H](CS)C(=O)N[C@@H](C)C(=O)N[C@@H](CCCCN)C(=O)N[C@@H](CCCCN)C(=O)N[C@@H](CC(C)C)C(=O)N[C@@H](CCCCN)C(=O)N[C@@H](CCCCN)C(=O)N[C@@H](CCCNC(=N)N)C(=O)O)[C@@H](C)O)NC(=O)[C@H](CS)NC(=O)[C@H](C)NC1=O [S2] (H-H[S5]MAC[S5]TCAKKLKKR-OH; staple 2-6; N-terminus and C-terminus assumed); 0.7063
CSCC[C@H](NC(=O)[C@H](CC(C)C)NC(=O)[C@@H](N)Cc1c[nH]cn1)C(=O)N[C@@H](C)C(=O)N[C@@H](CS)C(=O)N[C@@H](Cc1ccccc1)C(=O)N[C@@]1(C)CCCC=CCCC[C@@](C)(C(=O)N[C@@H](CC(C)C)C(=O)N[C@@H](CCCCN)C(=O)N[C@@H](CCCCN)C(=O)N[C@@H](CCCNC(=N)N)C(=O)O)NC(=O)[C@H](CCCCN)NC(=O)[C@H](C)NC(=O)[C@H](CS)NC1=O [S7] (H-HLMACF[S5]CAK[S5]LKKR-OH; staple 7-11; N-terminus and C-terminus assumed); 0.655
CSCC[C@H](NC(=O)[C@H](CC(C)C)NC(=O)[C@@H](N)Cc1c[nH]cn1)C(=O)N[C@@H](C)C(=O)N[C@@H](CS)C(=O)N[C@@H](Cc1ccccc1)C(=O)N[C@H](C(=O)N[C@@H](CS)C(=O)N[C@@H](C)C(=O)N[C@@]1(C)CCCC=CCCC[C@@](C)(C(=O)N[C@@H](CCCNC(=N)N)C(=O)O)NC(=O)[C@H](CCCCN)NC(=O)[C@H](CC(C)C)NC(=O)[C@H](CCCCN)NC1=O)[C@@H](C)O [S10] (H-HLMACFTCA[S5]KLK[S5]R-OH; staple 10-14; N-terminus and C-terminus assumed); 0.8163

## Input Requested field: hydroxyproline content (μg/mg protein). Item: CSCC[C@H](NC(=O)[C@H](CC(C)C)NC(=O)[C@@H](N)Cc1c[nH]cn1)C(=O)N[C@@H](C)C(=O)N[C@@H](CS)C(=O)N[C@@H](Cc1ccccc1)C(=O)N[C@H](C(=O)N[C@@]1(C)CCCC=CCCC[C@@](C)(C(=O)N[C@@H](CCCCN)C(=O)N[C@@H](CCCCN)C(=O)N[C@@H](CCCNC(=N)N)C(=O)O)NC(=O)[C@H](CCCCN)NC(=O)[C@H](CCCCN)NC(=O)[C@H](C)NC1=O)[C@@H](C)O [S8] (H-HLMACFT[S5]AKK[S5]KKR-OH; staple 8-12; N-terminus and C-terminus assumed)
## Output 0.825
